- target: recombinant eIF4E (Homo sapiens (Human), UniProt P06730)
- Sequence (P06730 whole entry): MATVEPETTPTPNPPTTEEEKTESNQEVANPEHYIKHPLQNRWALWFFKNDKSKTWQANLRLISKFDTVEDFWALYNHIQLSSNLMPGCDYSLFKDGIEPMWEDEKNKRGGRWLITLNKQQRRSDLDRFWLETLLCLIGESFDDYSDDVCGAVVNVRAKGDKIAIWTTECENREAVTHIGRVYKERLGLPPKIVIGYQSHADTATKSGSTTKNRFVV
- test-details: Fluorescence polarization competition assay for eIF4E binding potency
- settings: fluorescence polarization competition, 75 nM recombinant eIF4E, 20 nM EDA-m7GDP-ATTO-550; IC50 class; read-out: elF4E FP
pIC50: −log10 of the molar value.

compound: Cc1cc(-c2cc(Cl)ccc2OCCn2c(C)nc3cc(Cl)c(N(C)c4cncc(F)c4)c(C#N)c3c2=O)c2scc(C(=O)O)c2n1
pIC50: > 7.30

compound: Cc1nc2ccc(S(=O)(=O)N3CCC(F)(F)CC3)c(C#N)c2c(=O)n1CCOc1ccc(Cl)cc1-c1ccnc2c(C(=O)O)csc12
pIC50: > 7.30

compound: Cc1cc(-c2cc(Cl)ccc2OCCn2c(C)nc3cnc(N(C)c4ccccc4)c(C#N)c3c2=O)c2scc(C(=O)O)c2n1
pIC50: > 7.30

compound: N#Cc1cc(C(F)(F)F)cc2nc(CF)n(CCOc3ccc(Cl)cc3-c3ccnc4c(C(=O)O)csc34)c(=O)c12
pIC50: 6.00 to 7.30

compound: Cc1cc(-c2c(C(F)(F)F)cc3nc(C)n(CCOc4ccc(Cl)cc4-c4cc(C)nc5c(C(=O)O)csc45)c(=O)c3c2C#N)ccn1
pIC50: > 7.30

compound: Cc1ccc(-c2cc(Cl)ccc2OCCn2c(C)nc3cnc(-c4ccncc4)c(C#N)c3c2=O)c2scc(C(=O)O)c12
pIC50: > 7.30

compound: CCc1cc(-c2cc(Cl)ccc2OCCn2c(C)nc3cnc(N4CCC(O)C4)c(C#N)c3c2=O)c2scc(C(=O)O)c2n1 (centres unmarked)
pIC50: > 7.30

compound: N#Cc1cc2c(=O)n(CCOc3ccc(Cl)cc3-c3cc(C(=O)O)cs3)cnc2cn1
pIC50: < 6.00

compound: Cc1nc2cnc(N(C)C3CCN(C4CCC4(F)F)CC3)c(C#N)c2c(=O)n1CC#Cc1ccc(Cl)cc1-c1ccnc2c(C(=O)O)csc12 (centres unmarked)
pIC50: > 7.30

compound: Cc1cc(-c2cc(Cl)ccc2OCCn2c(C)nc3cncc(C#N)c3c2=O)c2scc(C(=O)O)c2n1
pIC50: > 7.30

compound: Cc1cc(-c2cc(Cl)ccc2OCCn2c(C)nc3cc(C(F)(F)F)c(S(C)(=O)=O)nc3c2=O)c2scc(C(=O)O)c2n1
pIC50: > 7.30

compound: Cc1nc2ccc(CCN(C)C)c(C#N)c2c(=O)n1CCOc1ccc(Cl)cc1-c1cc(OC(F)F)nc2c(C(=O)O)csc12
pIC50: > 7.30

compound: Cc1sc2c(-c3cc(Cl)ccc3C#CCn3c(C)nc4cc(C(F)(F)F)c(CN5CCN(C)CC5)c(C#N)c4c3=O)ccnc2c1C(=O)O
pIC50: > 7.30

compound: Cc1cc(-c2cc(Cl)ccc2OCCn2c(C)nc3cc(C(F)(F)F)c(C4CC4)c(C#N)c3c2=O)c2scc(C(=O)O)c2n1
pIC50: > 7.30

compound: Cc1nc2cc(C(F)(F)F)cc(C#N)c2c(=O)n1CCOc1ccc(Cl)cc1-c1cc(C(N)=O)nc2c(C(=O)O)csc12
pIC50: 6.00 to 7.30

compound: CCc1cc(-c2cc(Cl)ccc2OCCn2c(N)nc3cc(Cl)cc(C#N)c3c2=O)c2scc(C(=O)O)c2n1
pIC50: 6.00 to 7.30

compound: Cc1nc2cc(C(F)(F)F)cc(C(F)(F)F)c2c(=O)n1CCOc1ccc(Cl)cc1-c1ccnc2c(C(=O)O)csc12
pIC50: 6.00 to 7.30

compound: Cc1cc(-c2cc(Cl)ccc2OCCn2c(C)nc3cc(C(F)(F)F)c(-c4cnsc4)c(C#N)c3c2=O)c2scc(C(=O)O)c2n1
pIC50: > 7.30

compound: Cc1cc(-c2cc(Cl)ccc2OCCn2c(C)nc3cnc(C4CC4(F)F)c(C#N)c3c2=O)c2scc(C(=O)O)c2n1 (centres unmarked)
pIC50: > 7.30

compound: Cc1cccc(-c2c(C(F)(F)F)cc3nc(C)n(CCOc4ccc(Cl)cc4-c4cccc(C(=O)O)c4)c(=O)c3c2C#N)n1
pIC50: 6.00 to 7.30
